Where do the numbers come from? From patent US20240368209A1.

measurement.notes: Metabolic stability in human liver microsomes
Assay type: in vitro ADME
particulars: read-out: In vitro half-life t1/2
measured.metric: half-life at 1 μM (min)

[[record]]
compound = "CC(C)NP(=O)(OCc1ccc([N+](=O)[O-])c(Oc2ccc(-c3ccc(F)cc3)c(F)c2)c1)OCC1OC(C2N=CC(N)=NC2=O)C(F)(F)C1O (stereo not shown)"
measured_metric = "half-life at 1 μM"
numeric_readout = 31


* * *

measurement.notes: Metabolic stability in rat liver microsomes
Type: in vitro ADME
particulars: read-out: In vitro half-life t1/2
measured.metric: half-life at 1 μM (min)

[[record]]
molecule = "CC(C)NP(=O)(OCc1ccc([N+](=O)[O-])c(Oc2ccc(-c3ccc(F)cc3)c(F)c2)c1)OCC1OC(C2N=CC(N)=NC2=O)C(F)(F)C1O (stereo not shown) [Compound H11]"
unit_of_measurement = "min"
numeric_readout = 20.1

